Source listed as patent US20120046301A1.

Catalogue of compounds with associated Ki
molecular target: vanilloid receptor 1 (VR1/TRPV1 receptor) (Homo sapiens, UniProt Q8NER1); construct: expressed in transfected cells; host or cells: CHO K1 cells (ECACC), stably transfected; assay: FLIPR assay, CHO K1 cells transfixed with the human VR1 gene, displacement of capsaicin (Pharmacological Method II); format: cell-based; conditions: capsaicin (Cap) 100 nM, Ki from IC50 by Cheng-Prusoff
Sequence (Q8NER1 whole entry): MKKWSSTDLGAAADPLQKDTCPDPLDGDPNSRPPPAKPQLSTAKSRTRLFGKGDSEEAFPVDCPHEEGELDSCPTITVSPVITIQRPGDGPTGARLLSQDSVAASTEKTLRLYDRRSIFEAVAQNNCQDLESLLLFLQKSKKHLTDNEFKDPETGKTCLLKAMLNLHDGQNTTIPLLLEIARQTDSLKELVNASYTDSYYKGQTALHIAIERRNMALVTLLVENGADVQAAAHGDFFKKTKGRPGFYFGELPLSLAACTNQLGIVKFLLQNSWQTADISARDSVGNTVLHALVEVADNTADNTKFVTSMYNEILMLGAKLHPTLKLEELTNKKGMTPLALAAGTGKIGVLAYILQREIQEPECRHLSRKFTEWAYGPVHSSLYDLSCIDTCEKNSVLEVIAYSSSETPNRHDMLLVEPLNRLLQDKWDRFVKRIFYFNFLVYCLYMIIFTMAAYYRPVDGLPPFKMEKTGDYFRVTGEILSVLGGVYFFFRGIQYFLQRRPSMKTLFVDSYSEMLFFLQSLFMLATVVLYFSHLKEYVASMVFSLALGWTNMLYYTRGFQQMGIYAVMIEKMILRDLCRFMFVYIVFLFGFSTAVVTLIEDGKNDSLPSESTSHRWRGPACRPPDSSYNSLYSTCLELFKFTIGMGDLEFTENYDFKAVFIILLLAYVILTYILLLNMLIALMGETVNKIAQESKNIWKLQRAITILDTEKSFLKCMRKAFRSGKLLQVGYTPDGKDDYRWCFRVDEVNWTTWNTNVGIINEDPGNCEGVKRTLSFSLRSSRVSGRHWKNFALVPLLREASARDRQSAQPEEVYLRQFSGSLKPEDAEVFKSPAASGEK
Use nM as the unit, but write only the number.

// worked examples, Ki included
CC(C)(C)c1cc(CNC(=O)N2CCN(c3cccc(Cl)c3)CC2)n(-c2cccc(Cl)c2)n1 [Example 52] ... 36
O=C(NCc1cc(C(F)(F)F)nn1-c1cccc(Cl)c1)N1CCN(c2ccccc2F)CC1 [Example 46] ... 45
O=C(NCc1cc(C(F)(F)F)nn1-c1cccc(Cl)c1)N1CC=C(c2ccc(F)cc2)CC1 [Example 34] ... 27

Next compound, please.
Ask | Look at this compound and give its reported Ki. CCCCCn1nc(C(F)(F)F)cc1CNC(=O)N1CCN(c2ncccc2Cl)CC1 [Example 12]
Reply | 68
